Below, pIC50 values reported for RORc (Homo sapiens) across several publications.
pIC50: −log10 of the molar value.
measurement.type: pIC50

Here are 4 molecules together with their reported answers.
{"columns": ["molecule", "subject.of.test", "pIC50"],
 "data": [
  ["Cc1noc(NC(=O)[C@]23CC[C@H](c4cc(-c5c(F)cccc5F)nnc42)C3(C)C)n1", "RORc (Homo sapiens)", 5.25],
  ["CC1(C)[C@H]2CC[C@]1(c1ccnc(NCCO)n1)c1nnc(-c3c(F)cccc3F)cc12", "RORc (Homo sapiens)", 7.81],
  ["CC1(C)[C@H]2CC[C@]1(N(CC(F)F)C(=O)CO)c1nnc(-c3c(F)cccc3F)cc12", "RORc (Homo sapiens)", 5.84],
  ["CNC(=O)C1(c2ccc(CN3[C@@H](C)CCC(c4ccccc4)S3(=O)=O)cc2)CCOCC1 (some centres unmarked)", "RORc (Homo sapiens)", 6.24]
]}

A = CC1(C)[C@H]2CC[C@]1([C@H]1CN(C(=O)c3ccc(Cl)nn3)CCO1)c1nnc(-c3c(F)cccc3F)cc12
B = CC[C@@H](O[C@@]12CC[C@@H](c3cc(-c4c(F)cccc4F)nnc31)C2(C)C)C(=O)N1CC(C#N)C1
Task: Kindly identify the item with the lower pIC50 figure among these two: A and B Label of pick, please.
Result: A

A = CC1(C)[C@@H]2CC[C@@]1(C(=O)N1CCC3(COC3)C1)c1nnc(-c3c(F)cccc3F)cc12
B = CC(C)(O)c1cc(-c2cccc([C@@]34CC[C@@H](c5cc(-c6c(F)cccc6F)nnc53)C4(C)C)n2)[nH]n1
C = CC(=O)N(C)C1CCN(C(=O)[C@]23CC[C@H](c4cc(-c5c(F)cccc5F)nnc42)C3(C)C)C1 (some centres unmarked)
D = C[C@@H](O)CNC(=O)N1CCC[C@H]([C@@]23CC[C@@H](c4cc(-c5c(F)cccc5F)nnc42)C3(C)C)C1
E = Cc1ncn(-c2cccc([C@@]34CC[C@@H](c5cc(-c6c(F)cccc6F)nnc53)C4(C)C)n2)n1
Task: Please put the entries in order of rising pIC50. In your reply, arrange the labels in the requested order.
Result: A, C, D, B, E
(A: 5.61, C: 5.91, D: 7.82, B: 8.03, E: 8.72)

I = Cc1ncc(-c2cncc([C@@]34CC[C@@H](c5cc(-c6c(F)cccc6F)nnc53)C4(C)C)n2)o1
II = CC1(C)[C@H]2CC[C@]1(C(=O)NC1COC1)c1nnc(-c3c(F)cccc3F)cc12
Task: Please let me know which one, I or II , has a lower measured pIC50 value. Kindly give the label for the entry you pick.
Result: II
(II: 5.62, I: 7.89)

P = C[C@H]1CC[C@H](c2ccccc2)S(=O)(=O)N1Cc1cc(F)c([C@H](OCC2CC2)C(N)=O)cc1F
Q = C[C@H]1CC[C@H](c2ccccc2)S(=O)(=O)N1Cc1cc(F)c(C2(OCC(=O)NCCO)COC2)cc1F
Task: Sorting ascending by pIC50, which comes first: P or Q ? Answer by stating the label of the chosen item.
Result: P

---

Before we begin, note that these pIC50 values for RORc (Homo sapiens, UniProt P51449) originate from several publications.
pIC50: −log10 of the molar value.
measurement.type: pIC50

{"columns": ["compound", "endpoint.value"],
 "data": [
  ["CC1(C)[C@H]2CC[C@]1(c1nc(-c3nc(C(N)=O)no3)ncc1F)c1nnc(-c3c(F)cccc3F)cc12", 7.94],
  ["C[C@H]1CC[C@H](c2ccccc2)S(=O)(=O)N1Cc1ccc(C2(C(=O)NCCO)CCOCC2)cc1F", 6.47],
  ["CC1(C)[C@H]2CC[C@]1(c1cncc(-c3nc([C@H](O)C(F)(F)F)n[nH]3)n1)c1nnc(-c3c(F)cccc3F)cc12", 7.05],
  ["C[C@H]1CC[C@H](c2ccccc2)S(=O)(=O)N1Cc1ccc(C2(NC(=O)C(O)CO)CCOCC2)cc1F (stereo partly drawn)", 6.86],
  ["CC1(C)[C@H]2CC[C@]1(COc1cncc(=O)[nH]1)c1nnc(-c3c(F)cccc3F)cc12", 5.70],
  ["CC1(C)[C@H]2CC[C@]1([C@H]1CCCN(C(=O)c3ccc(=O)[nH]n3)C1)c1nnc(-c3c(F)cccc3F)cc12", 7.13],
  ["CC(C)CN(c1cccc(Cl)c1)S(=O)(=O)c1cccc(NC2CCN(S(C)(=O)=O)CC2)c1", 6.32],
  ["CC1(C)[C@H]2CC[C@]1(c1cncc(-c3nc(CS(C)(=O)=O)n[nH]3)n1)c1nnc(-c3c(F)cccc3F)cc12", 7.63],
  ["Cc1cnc([C@@]23CC[C@@H](c4cc(-c5c(F)cccc5F)nnc42)C3(C)C)o1", 7.57],
  ["CC(C)(O)Cc1n[nH]c(-c2cncc([C@@]34CC[C@@H](c5cc(-c6c(F)cccc6F)nnc53)C4(C)C)n2)n1", 7.68]
]}

1 = CC1(C)[C@@H]2CC[C@@]1(C(=O)Nc1ccc(C#N)cn1)c1nnc(-c3c(F)cccc3F)cc12
2 = CNC(=C[N+](=O)[O-])NC(C)c1cc(F)c(CN2C(C)CCC(c3ccccc3)S2(=O)=O)cc1F (stereo not drawn)
Task: In terms of reported pIC50, does 1 or 2 have the smaller number? Answer by quoting the chosen item's label.
Result: 1
(1: 5.55, 2: 7.70)

P = CC(C)CN(c1ccccc1C(F)(F)F)S(=O)(=O)c1ccc(NC(=O)C2CCN(S(C)(=O)=O)CC2)cc1
Q = CC1(C)[C@H]2CC[C@]1(CO)c1nnc(Oc3c(F)cccc3F)cc12
Task: Between P and Q , which one shows the larger pIC50 value? Answer by quoting the chosen item's label.
Result: P
